Test: HILIC, HILICON iHILIC-(P) Classic, HILIC, PEEK, 50 × 2.1 mm, 5 µm, 45 °C, 0.12 mL/min, estimated dead time 0.92 min; A: water + 20 mM ammonium carbonate; B: acetonitrile; gradient (min/%B) 0/90 1/90 21/20 21.5/20 26.5/20 27.5/90 35/90
Recorded conditions: stereoisomer not certain
log10 of LC retention time values by entry
Measured metric: log10 of LC retention time (log10 of the value in min)

- Compound: "O=P(O)(O)OCC1OC(O)(COP(=O)(O)O)C(O)C1O (stereo unspecified) [Fructose-1,6-bisphosphate]"
  log10 of LC retention time: 1.21
- Compound: "O=c1ccn(C2OC(COP(=O)(O)OP(=O)(O)OP(=O)(O)O)C(O)C2O)c(=O)[nH]1 (stereo unspecified)"
  log10 of LC retention time: 1.16
- Compound: "NC(=O)CCC(N)C(=O)O (stereo unspecified)"
  log10 of LC retention time: 0.92
- Compound: "CCC(C)C(N)C(=O)O (stereo unspecified)"
  log10 of LC retention time: 0.76
- Compound: "O=P(O)(O)OCC(O)CO (stereo unspecified) [Glycerol-3-phosphate]"
  log10 of LC retention time: 1.04
- Compound: "O=c1ccn(C2OC(COP(=O)(O)O)C(O)C2O)c(=O)[nH]1 (stereo unspecified)"
  log10 of LC retention time: 0.98
- Compound: "NC(CCC(=O)NC(CSSCC(NC(=O)CCC(N)C(=O)O)C(=O)NCC(=O)O)C(=O)NCC(=O)O)C(=O)O (stereo unspecified)"
  log10 of LC retention time: 1.18
- Compound: "CSCCC(N)C(=O)O (stereo unspecified)"
  log10 of LC retention time: 0.77
- Compound: "NC(CCC(=O)NC(CS)C(=O)NCC(=O)O)C(=O)O (stereo unspecified)"
  log10 of LC retention time: 0.93
- Compound: "O=C(O)CC(O)(CC(=O)O)C(=O)O"
  log10 of LC retention time: 1.21
- Compound: "O=C(O)C(CO)OP(=O)(O)O (stereo unspecified)"
  log10 of LC retention time: 1.13
- Compound: "NC(CO)C(=O)O (stereo unspecified)"
  log10 of LC retention time: 0.93
- Compound: "CC(C)C(N)C(=O)O (stereo unspecified)"
  log10 of LC retention time: 0.83
- Compound: "CC(=O)NC1C(OP(=O)(O)OP(=O)(O)OCC2OC(n3ccc(=O)[nH]c3=O)C(O)C2O)OC(CO)C(O)C1O (stereo unspecified)"
  log10 of LC retention time: 1.07
- Compound: "Nc1nc2c(ncn2C2OC(COP(=O)(O)OP(=O)(O)OP(=O)(O)O)C(O)C2O)c(=O)[nH]1 (stereo unspecified)"
  log10 of LC retention time: 1.23
- Compound: "Nc1ncnc2c1ncn2C1OC(COP(=O)(O)OP(=O)(O)O)C(O)C1O (stereo unspecified)"
  log10 of LC retention time: 1.09
- Compound: "Nc1ncnc2c1ncn2C1OC(COP(=O)(O)OP(=O)(O)OP(=O)(O)O)C(O)C1O (stereo unspecified)"
  log10 of LC retention time: 1.13
- Compound: "O=C(O)C1(O)CC(O)C(O)C(O)C1 (stereo unspecified)"
  log10 of LC retention time: 0.81
- Compound: "CC(O)C(N)C(=O)O (stereo unspecified)"
  log10 of LC retention time: 0.91
- Compound: "C=C(OP(=O)(O)O)C(=O)O"
  log10 of LC retention time: 1.14
- Compound: "Cc1ncc(C[n+]2csc(CCO)c2C)c(N)n1"
  log10 of LC retention time: 1.11
- Compound: "CC(=O)SCCNC(=O)CCNC(=O)C(O)C(C)(C)COP(=O)(O)OP(=O)(O)OCC1OC(n2cnc3c(N)ncnc32)C(O)C1OP(=O)(O)O (stereo unspecified)"
  log10 of LC retention time: 0.94
- Compound: "Nc1ccn(C2OC(COP(=O)(O)OP(=O)(O)O)C(O)C2O)c(=O)n1 (stereo unspecified)"
  log10 of LC retention time: 1.12
- Compound: "NCCCC(N)C(=O)O (stereo unspecified)"
  log10 of LC retention time: 1.26
- Compound: "Nc1nc2ncc(CNc3ccc(C(=O)NC(CCC(=O)O)C(=O)O)cc3)nc2c(=O)[nH]1 (stereo unspecified)"
  log10 of LC retention time: 1.16
- Compound: "O=C(CO)COP(=O)(O)O [Triose phosphate]"
  log10 of LC retention time: 1.05
- Compound: "O=C(O)CC(C(=O)O)C(O)C(=O)O (stereo unspecified)"
  log10 of LC retention time: 1.20
- Compound: "Nc1nc2c(ncn2C2OC(COP(=O)(O)O)C(O)C2O)c(=O)[nH]1 (stereo unspecified)"
  log10 of LC retention time: 1.15
- Compound: "Nc1nc2c(ncn2C2OC(CO)C(O)C2O)c(=O)[nH]1 (stereo unspecified)"
  log10 of LC retention time: 0.83
- Compound: "Nc1ncnc2nc[nH]c12"
  log10 of LC retention time: 0.53
- Compound: "O=C(O)C1CCCN1 (stereo unspecified)"
  log10 of LC retention time: 0.83
- Compound: "O=c1ccn(C2OC(COP(=O)(O)OP(=O)(O)O)C(O)C2O)c(=O)[nH]1 (stereo unspecified)"
  log10 of LC retention time: 1.09
- Compound: "O=C1OC(C(O)CO)C(O)=C1O (stereo unspecified)"
  log10 of LC retention time: 0.97
- Compound: "O=C(O)c1cccnc1"
  log10 of LC retention time: 0.22
- Compound: "NC(=O)c1ccc[n+](C2OC(COP(=O)(O)OP(=O)(O)OCC3OC(n4cnc5c(N)ncnc54)C(O)C3O)C(O)C2O)c1 (stereo unspecified)"
  log10 of LC retention time: 0.95
- Compound: "CC(O)C(=O)O (stereo unspecified)"
  log10 of LC retention time: 0.45
- Compound: "Nc1ncnc2c1ncn2C1OC(CO)C(O)C1O (stereo unspecified)"
  log10 of LC retention time: 0.55
- Compound: "O=C(O)CC(=O)O"
  log10 of LC retention time: 0.97
- Compound: "NC(=O)c1ccc[n+](C2OC(COP(=O)([O-])O)C(O)C2O)c1 (stereo unspecified)"
  log10 of LC retention time: 0.97
- Compound: "NC(Cc1ccc(O)cc1)C(=O)O (stereo unspecified)"
  log10 of LC retention time: 0.84
- Compound: "NCCCCC(N)C(=O)O (stereo unspecified)"
  log10 of LC retention time: 1.27
